Property: TGI; scope: individual compounds
# System: T-47D breast
# test description: NCI tumour cell line growth inhibition, 48 h
Where a SMILES comes first, the peptide text is derived from it. [ ]: non-standard residue; d: D form. The star is where a group is joined. Palmitoyl = CCCCCCCCCCCCCCCC(=O)*; Cbz = O=C(OCc1ccccc1)*; Aib = CC(C)(N)C(=O)O; OBn = c1ccc(CO*)cc1

{"compound": "CCOC(=O)c1c(C)c2c(n1Cc1ccccc1)CSCC2=O", "sign": "=", "TGI (µM)": 45.3}
{"compound": "Cn1ncc2c(NCc3ccccc3)ncnc21", "sign": ">", "TGI (µM)": 100}
{"compound": "N#CC(I)CS(=O)(=O)c1ccccc1 (stereo not drawn)", "sign": "=", "TGI (µM)": 42.6}
{"compound": "CC(C)C1=CC23CCC4C(C)(C(=O)O)CCCC4(C)C2CC1C1C(=O)N(CCCCCCN2C(=O)C4C5CC6C7(C)CCCC(C)(C(=O)O)C7CCC6(C=C5C(C)C)C4C2=O)C(=O)C13 (stereo not drawn)", "sign": "=", "TGI (µM)": 41.5}
{"compound": "C[C@H](CCOc1cccc(CC(=O)O)c1)N(Cc1cccc(C(F)(F)F)c1Cl)CC(c1ccccc1)c1ccccc1", "sign": "=", "TGI (µM)": 33.6}
{"compound": "O=c1onc2n1-c1cc(Cl)ccc1C(=S)N1CSCC21 (stereo not drawn)", "sign": ">", "TGI (µM)": 100}
{"compound": "COc1ccc(/C=C\\c2cc(OC)c(OC)c(OC)c2)cc1OCC(=O)O", "sign": ">", "TGI (µM)": 100}
{"compound": "CCOC(=O)/C(C(C)=O)=C(\\OC(C)=O)c1ccncc1C(=O)O", "sign": ">", "TGI (µM)": 100}
{"compound": "O=C(OCC(Cl)(Cl)Cl)N1CC[C@H](C2CCCCC2)C1", "sign": "=", "TGI (µM)": 35.1}
{"compound": "CCCCCCn1c(-c2ccc(C(=O)O/N=C(\\N)c3ccc4c(c3)OCO4)cc2)nc(-c2ccccc2)c1-c1ccccc1", "sign": "=", "TGI (µM)": 5.11}
{"compound": "O=C(O)c1ccc(CNCc2ccccc2)cc1", "sign": ">", "TGI (µM)": 100}
{"compound": "CC(NC(=O)C(C)(C)NC(=O)C(CC(=O)OCc1ccccc1)NC(=O)OCc1ccccc1)C(N)=O (stereo not drawn) (Cbz-Asp(OBn)-[Aib]-Ala-NH2; configuration not given here)", "sign": ">", "TGI (µM)": 100}
{"compound": "CCCCCCCCCCCCCCCC(=O)N1CCCC1C(=O)NCC(=O)NC(Cc1ccccc1)C(=O)N1CCCC1C(=O)NC(CO)C(=O)NC(Cc1ccc(O)cc1)C(=O)NC(CCCCN)C(=O)NC(CC(C)C)C(=O)NC(CCCN=C(N)N)C(=O)N1CCCC1C(=O)NCC(N)=O (stereo not drawn) (Palmitoyl-PGFPSYKLRPG-NH2; configuration not given here)", "sign": "=", "TGI (µM)": 48.5}

###

Property: TGI; scope: individual compounds
# System: MALME-3M melanoma
# test description: NCI tumour cell line growth inhibition, 48 h
endpoint name: TGI (µM)

{"compound": "COc1ccc(/C=C\\c2cc(OC)c(OC)c(OC)c2)cc1OCC(=O)O", "endpoint name": "TGI", "sign": ">", "readout value": 100}
{"compound": "COC(=O)c1ccccc1CC1Cc2cccc(C)c2C1=O (stereo not given)", "endpoint name": "TGI", "sign": "=", "readout value": 48.3}
{"compound": "Cc1ccc(/C=C2/N=C(N/N=C\\C(O)C(O)C(O)C(O)CO)NC2=O)cc1 (stereo not given)", "endpoint name": "TGI", "sign": ">", "readout value": 100}
{"compound": "CCOc1ccc(NC(=O)CC2SC(=Nc3ccc(C)cc3C)NC2=O)cc1 (stereo not given)", "endpoint name": "TGI", "sign": ">", "readout value": 100}
{"compound": "O=Cc1cc2c(cc1-c1cc3c(cc1C=O)OCO3)OCO2", "endpoint name": "TGI", "sign": ">", "readout value": 100}
{"compound": "COc1cc(OC)c(OC)cc1/C=N/NC(=O)N/N=C/c1cc(OC)c(OC)cc1OC", "endpoint name": "TGI", "sign": ">", "readout value": 100}
{"compound": "CCOC(=O)c1c(C)c2c(n1Cc1ccccc1)CSCC2=O", "endpoint name": "TGI", "sign": "=", "readout value": 49.2}
{"compound": "NCCCn1c2c(c3ccc([N+](=O)[O-])cc3c1=O)C(=O)c1cc(I)ccc1-2", "endpoint name": "TGI", "sign": "=", "readout value": 1.86}
{"compound": "CCOc1ccc(OCC(=O)O)c2c1CCCC2=O", "endpoint name": "TGI", "sign": ">", "readout value": 100}
{"compound": "COc1cccc2c1OC(c1cccc3ccccc13)C([N+](=O)[O-])=C2 (stereo not given)", "endpoint name": "TGI", "sign": "=", "readout value": 4.08}
{"compound": "CN(Cc1cnc2nc(N)nc(N)c2n1)c1ccc(C(=O)N[C@@H](CCS(=O)(=O)O)C(=O)O)cc1", "endpoint name": "TGI", "sign": ">", "readout value": 100}
{"compound": "Cc1cccc(NC2=C(Cl)C(=O)c3nc(C)ccc3C2=O)c1", "endpoint name": "TGI", "sign": "=", "readout value": 3.07}
{"compound": "O=C1C=C(c2c(O)ccc3ccccc23)c2cc(O)ccc2C1=O", "endpoint name": "TGI", "sign": "=", "readout value": 34.2}
{"compound": "CC[C@]1(O)C[C@H]2CN(CCc3c([nH]c4ccccc34)C(C(=O)OC)(c3cc4c(cc3OC)N(C)[C@H]3[C@@](O)(C(=O)OC)[C@H](OC(C)=O)[C@]5(CC)[C@@H]6C[C@@H]6CN6CC[C@]43[C@@H]65)C2)C1 (stereo not given in full)", "endpoint name": "TGI", "sign": ">", "readout value": 8.73}
{"compound": "OCCCc1ccc2c(c1)[C@H](CO)[C@@H](c1ccc(O)cc1)O2", "endpoint name": "TGI", "sign": "=", "readout value": 29.2}
{"compound": "COc1cc2c(cc1OCCCCCN1CCN(c3ncnc4ccccc34)CC1)N=CC1CCCN1C2=O (stereo not given)", "endpoint name": "TGI", "sign": "=", "readout value": 0.0618}
{"compound": "CC1=C(C#N)c2nc3ccccc3n2C(=O)C1(C)CCO (stereo not given)", "endpoint name": "TGI", "sign": ">", "readout value": 100}
{"compound": "O=C(c1ccccc1)c1ccc2c(c1)NC(=O)c1ccccc1SSc1ccccc1C(=O)N2", "endpoint name": "TGI", "sign": ">", "readout value": 100}
{"compound": "CCOC(=O)C(NC(=O)CC)(N1CCN(c2cc3c(cc2F)c(=O)c(C(=O)O)cn3C2CC2)CC1)C(F)(F)F (stereo not given)", "endpoint name": "TGI", "sign": ">", "readout value": 100}
{"compound": "Cc1ccsc1/C=N/Nc1cnccn1", "endpoint name": "TGI", "sign": ">", "readout value": 100}
